- Test Protocol: Nutrikinetics of isoflavone metabolites in serum after oral boiled soybean
- Assay type: in vivo, mice (C57BL/6)
- Measurement Setup: pooled serum of sham and OVX groups after BS or CGJ, UPLC–QTOF‐MS
Quantity Kind: detection in pooled serum samples

[[record]]
compound = "O=c1c(-c2ccc(O)cc2)coc2cc(O[C@@H]3O[C@H](CO)[C@@H](O)[C@H](O)[C@H]3O)ccc12 [Daidzin]"
quantity_kind = "detection in pooled serum samples"
result = "not detected"

[[record]]
compound = "O=c1c(-c2ccc(O)cc2)coc2cc(O)cc(O)c12 [Genistein]"
quantity_kind = "detection in pooled serum samples"
result = "detected"

[[record]]
compound = "COc1cc2c(=O)c(-c3ccc(O)cc3)coc2cc1O [Glycitein]"
quantity_kind = "detection in pooled serum samples"
result = "detected"

[[record]]
compound = "O=c1c(-c2ccc(O)cc2)coc2cc(O[C@@H]3O[C@H](CO)[C@@H](O)[C@H](O)[C@H]3O)cc(O)c12 [Genistin]"
quantity_kind = "detection in pooled serum samples"
result = "not detected"


###

- Test Protocol: Nutrikinetics of isoflavone metabolites in serum after oral boiled soybean
- Assay type: in vivo, mice (C57BL/6)
- Measurement Setup: OVX mice, relative peak area
Quantity Kind: serum concentration, CGJ‐treated compared with BS‐treated

[[record]]
molecule = "O=c1c(-c2ccc(OS(=O)(=O)O)cc2)coc2cc(O)cc(O)c12 [Genistein 4′‐sulfate]"
result = "higher concentrations"

[[record]]
molecule = "COc1ccc(-c2coc3cc(O)ccc3c2=O)cc1"
result = "higher in BS‐treated"

[[record]]
molecule = "O=C(O)c1ccc(O)cc1 [4‐hydroxybenzoic acid, 4‐Hydroxybenzoic acid]"
result = "higher in BS‐treated"

[[record]]
molecule = "O=C(O)[C@H]1O[C@@H](Oc2ccc3c(c2)OC[C@H](c2ccc(O)cc2)C3)[C@H](O)[C@@H](O)[C@@H]1O [Equol 7‐glucuronide]"
result = "higher concentrations"


Next, consider the following molecule.
State the recorded serum concentration, CGJ‐treated compared with BS‐treated for this entry: `O=C(O)/C=C/c1ccc(O)c(O)c1`
higher in BS‐treated

The measured values listed here are drawn from paper PMC6139428.
